# credit: paper PMC5540273

Test system: ABL2
Details: concentration: 1 μM, replicates: in singlicate; n = 1;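 note: KINOMEscan kinase panel screen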
measured.metric: %Inh

COc1cc(Nc2nccc(N3CCC(NS(=O)(=O)c4ccc(NC(C)=O)cc4)CC3)n2)cc(OC)c1OC = 38%

// next item, %Inh requested
Return %Inh for the following molecule: COC(=O)Nc1nc2ccc(Oc3ccc(NC(=O)Nc4cc(C(F)(F)F)ccc4F)cc3)cc2[nH]1.Cl
94%

----------
Test system: MKNK1
Details: concentration: 1 μM, replicates: in singlicate; n = 1
The entries below come with measured %Inh values attached.
Give the quantity in %, number only.

CC(C)NCC(Cc1ccccc1)NC(=O)c1cc(Br)c(-c2ccnc3[nH]ccc23)s1.Cl.Cl (centres unmarked) = 0
COc1cc(Nc2ccnc3cc(-c4ccncc4)ccc23)cc(OC)c1OC.Cl = 28
Cc1cccc(Nc2nc(NCCN)ncc2C(N)=O)c1 = 13
N#CC1(c2cccc(C(=O)Nc3cccc(Oc4ccc5nc(NC(=O)C6CC6)sc5n4)c3)c2)CC1 = 40
CCOc1nccc(-c2c(-c3ccc(F)cc3)ncn2C2CCNCC2)n1 = 57

Name the recorded %Inh of the item CCNc1nccc(-c2c(-c3ccc(F)cc3)ncn2C2CCN(C)CC2)n1 in your answer.
0

Determine from records and report %Inh for CCn1cnc2c(NCc3ccccc3)ncnc21
0

Please give measured %Inh of the following entry: Cc1ccc(NC(=O)c2ccnc(N3CCCCC3)c2)cc1-c1ccc(C(=O)NCC2CC2)cc1
0

// Input: COC(=O)Nc1nc2cc(Oc3ccc(NC(=O)Nc4cccc(SC)c4)cc3)ccc2[nH]1.Cl . Output its %Inh only.
32

Identify the reported %Inh for the following entry. Cn1cc(-c2cnc(N)c3c(-c4ccc5c(c4)CCN5C(=O)Cc4ccccc4)csc23)cn1
0

Look up and report measured %Inh for this entry: CN(C)CCOc1ccc(-c2cc(-c3ccc(Cl)c(O)c3)c(-c3ccncc3)[nH]2)cc1.Cl.Cl
7

----------
%Inh reference
Tested on: MYLK
Conditions: concentration: 1 μM, replicates: in singlicate; n = 1
Write the number in % without appending the unit.

COc1cccc(C2=C(Nc3cccc(O)c3)C(=O)NC2=O)c1 = 27

Retrieve %Inh measured for Cl.O=C(Nc1ccc(Oc2ccc3[nH]c(NC(=O)c4ccco4)nc3c2)cc1)Nc1cc(C(F)(F)F)ccc1F and print it.
0

Determine from records and report %Inh for CC(C)c1nc(-c2ccc(F)c(NS(=O)(=O)c3c(F)cccc3F)c2)c(-c2ccnc(Nc3ccc(N4CCOCC4)nc3)n2)s1
7

Recall and state the measured %Inh for COc1ccc(NC(=O)c2ccoc2)cc1-c1ccc(C(=O)NCC2CC2)cc1 .
0

Please supply the value of reported %Inh for the item Cc1ccc(NC(=O)c2cccc(N3CCCCC3)c2)cc1-c1ccc(C(=O)NCC2CC2)cc1
17

Retrieve %Inh measured for Cl.Cl.NC(CNC(=O)c1cc(Br)c(-c2ccnc3[nH]ccc23)s1)c1ccccc1 (centres unmarked) and print it.
62

Supply recorded %Inh for CS(=O)(=O)c1cccc(CNc2nc(Nc3ccc4c(c3)CCC(=O)N4)ncc2C(F)(F)F)c1 here.
7

Tell me measured %Inh for CCNC(=O)/C=C/c1n[nH]c2cc(Sc3ccccc3C(=O)NC)ccc12 please.
11

Look up and state reported %Inh for c1ccc(Oc2ccc(Nc3ccnc4cc(-c5ccc(CN6CCCCC6)o5)ccc34)cc2)nc1
0

Note %Inh for the compound shown: COc1cccc(NC(=O)NCCNc2ccnc(Nc3ccc(F)cc3)n2)c1
16

Let me know recorded %Inh for COc1cccc2c(-c3ccncc3)c(-c3ccc(F)cc3)nn12 , thanks.
12

----------
Test system: TNNI3K
Settings: concentration: 1 μM, replicates: in singlicate; n = 1
measured.metric: %Inh (%)
Your answer should be a plain number; it is taken to be in %.

CCn1cnc2c(NCc3ccccc3)ncnc21 [SKF-96418] = 0

Quote %Inh reported for Fc1cc(Cl)ccc1Nc1ccnc2cc(-c3ccc(CN4CCSCC4)o3)ccc12 [GW560106] please.
10

Note %Inh for the molecule shown: Cc1ccc(C)c(NC(=O)Nc2ccc(C)c(-c3ccc(C(=O)Nc4ccncc4)cc3)c2)c1 [GSK1398473]
59

Find the measured %Inh of COC(=O)Nc1nc2ccc(Oc3ccc(CC(=O)Nc4cc(C(F)(F)F)ccc4F)cc3)cc2[nH]1 [GW680903] and report it.
70

Could you please provide reported %Inh for O=C(Nc1n[nH]c2nc(-c3ccccc3O)ccc12)C1CC1 [SB-711880] ? Thanks!
0

Report %Inh, nothing else, for this molecule: COc1cccc(C2=C(Nc3cccc(O)c3)C(=O)NC2=O)c1 [SB-390771]
21

Give the measured %Inh for O=C(Nc1c(F)cccc1F)c1cc(C(=O)c2ccccc2F)c[nH]1 [GSK1326180]
0

Answer with the recorded %Inh for the molecule listed here: CCNc1nccc(-c2c(-c3ccc(F)cc3)ncn2C2CCN(C)CC2)n1
0

Quickly give me recorded %Inh for Fc1cc(Cl)ccc1Nc1ccnc2cc(-c3ccc(CN4CCOCC4)o3)ccc12 [GW560109]
7

Determine from records and report %Inh for COc1cccc(NC(=O)NCCNc2ccnc(Nc3ccc(F)cc3)n2)c1 [GSK1379879]
0

Identify the reported %Inh for the following entry. NCCC(NC(=O)c1cc(Br)c(-c2ccnc3[nH]ccc23)s1)c1ccccc1.O=C(O)C(F)(F)F.O=C(O)C(F)(F)F (stereo not shown) [GSK1307810]
2

Determine from records and report %Inh for CC(C)c1nc(-c2cccc(NS(=O)(=O)c3c(F)cccc3F)c2)c(-c2ccnc(Nc3ccc(N4CCOCC4)nc3)n2)s1.Cl [GSK1723980]
52

Determine from records and report %Inh for Cc1cccc(Nc2nc(NCCN)ncc2C(N)=O)c1 [GSK1292139]
0

Hello, please tell me recorded %Inh for this one: Cc1cccc(Nc2nc(N[C@H]3CCCC[C@H]3N)ncc2C(N)=O)c1.Cl [GSK986310]
31

Give a short answer stating reported %Inh for Cl.N#CCc1ccc(Nc2nccc(Nc3ccc(Oc4ccccc4)cc3)n2)cc1 [GW639905] .
0

Look up and report measured %Inh for this entry: CC(=O)Nc1cn2nc(Oc3cccc(NC(=O)c4cccc(C(F)(F)F)c4)c3)ccc2n1
97

Return value of %Inh for input O=C(O)C(F)(F)F.O=c1[nH]ccc2nc(N[C@@H]3CCNC3)nc(Nc3cc(Cl)cc(Cl)c3)c12 [GSK2188764] , no commentary.
39

State its %Inh: O=C(O)C(F)(F)F.O=c1[nH]ccc2nc(N[C@@H]3CCNC3)nc(Nc3ccc4c(c3)S(=O)(=O)CC4)c12 [GSK2181306]
11

Provide measured %Inh value, entry: COc1ccc(NC(=O)c2ccoc2)cc1-c1ccc(C(=O)NCC2CC2)cc1 [GW810437]
1

----------
%Inh by entry:
Tested on: MUSK
Settings: concentration: 1 μM, replicates: in singlicate; n = 1
Provide a numeric answer, followed by its unit.

Cc1ccc(-c2ccc3occ(-c4ccc(S(C)=O)cc4)c3c2)nn1 (stereo not shown) = 3%
Cl.Cl.NCC(NC(=O)c1cc(-c2cccnc2)c(-c2ccnc3[nH]ccc23)s1)c1ccccc1 (stereo not shown) [GSK1323434] = 18%
O=C(Nc1n[nH]c2nc(-c3ccccc3O)ccc12)C1CC1 [SB-711880] = 0%

Proceeding to the next molecule to report its %Inh.
Quick one: give measured %Inh for CN(c1ccc(F)c(NC(=O)c2cccc(OC(C)(C)C#N)c2Cl)c1)c1ccc2nc(NC(=O)C3CC3)sc2n1
0%

----------
Test system: ULK2
Conditions: concentration: 1 μM, replicates: in singlicate; n = 1
measured.metric: %Inh (%)
Give the number; % is assumed, so skip it.

Worked cases, answers included:
CCn1c(-c2nonc2N)nc2c(-c3ccccc3)ncc(OCCCN)c21.O=C(O)C(F)(F)F.O=C(O)C(F)(F)F [GSK260205] = 0
CC(=O)Nc1cn2nc(Oc3cccc(NC(=O)c4cccc(C(F)(F)F)c4)c3)ccc2n1 = 0

Provide %Inh value for the following compound: COc1ccc(C)c(Nc2ccnc(Nc3ccc(-c4cnc[nH]4)cc3)n2)c1.Cl [GW784041]
0

Quote %Inh reported for COc1cccc2c(-c3ccncc3)c(-c3ccc(F)cc3)nn12 [GW468513] please.
0

Read off the recorded %Inh for COc1ccc(C2=C(Nc3cccc(O)c3)C(=O)NC2=O)cc1 [SB-390766]
0

Return value of %Inh for input CCOc1nccc(-c2c(-c3ccc(F)cc3)ncn2C2CCNCC2)n1 [SB-249175] , no commentary.
34

Name the recorded %Inh of the compound listed here: CN(c1ccc(NC(=O)Nc2cccc(Cl)c2)cc1)c1ccnc(N)n1.Cl [GW830707]
17

Fill in %Inh for record N#Cc1cnc2cc(-c3cnc(CNCCN4CCOCC4)s3)ccc2c1Nc1ccc(Oc2ccccc2)cc1 [GW664114]
0

For CNc1nccc(-c2ccc3c(N)n[nH]c3c2)n1 [GSK2206003] , write its %Inh.
41
